Reference source: ChEMBL document CHEMBL2384937

molecular target: Epidermal growth factor receptor (Homo sapiens); assay: Inhibition of recombinant EGFR (unknown origin) after 10 mins by DELFIA/time-resolved fluorometry
Readout name: IC50 (µM)

a: CCOc1cc(N)c(C(=O)Nc2ccc(F)c(Cl)c2)cc1NC(=O)/C=C/CN(C)C
b: CCOc1ccc(C(=O)Nc2ccc(OCc3ccccn3)c(Cl)c2)cc1NC(=O)/C=C/CN(C)C
### Prompt Given a and b , report the one with the higher recorded IC50. Selection: enter the item's label.
### Response a
(a: 4.5 µM, b: 1.2 µM)

---

biological target: Epidermal growth factor receptor (Homo sapiens, UniProt P00533); assay: Inhibition of recombinant EGFR (unknown origin) after 10 mins by DELFIA/time-resolved fluorometry
Sequence (P00533 whole entry): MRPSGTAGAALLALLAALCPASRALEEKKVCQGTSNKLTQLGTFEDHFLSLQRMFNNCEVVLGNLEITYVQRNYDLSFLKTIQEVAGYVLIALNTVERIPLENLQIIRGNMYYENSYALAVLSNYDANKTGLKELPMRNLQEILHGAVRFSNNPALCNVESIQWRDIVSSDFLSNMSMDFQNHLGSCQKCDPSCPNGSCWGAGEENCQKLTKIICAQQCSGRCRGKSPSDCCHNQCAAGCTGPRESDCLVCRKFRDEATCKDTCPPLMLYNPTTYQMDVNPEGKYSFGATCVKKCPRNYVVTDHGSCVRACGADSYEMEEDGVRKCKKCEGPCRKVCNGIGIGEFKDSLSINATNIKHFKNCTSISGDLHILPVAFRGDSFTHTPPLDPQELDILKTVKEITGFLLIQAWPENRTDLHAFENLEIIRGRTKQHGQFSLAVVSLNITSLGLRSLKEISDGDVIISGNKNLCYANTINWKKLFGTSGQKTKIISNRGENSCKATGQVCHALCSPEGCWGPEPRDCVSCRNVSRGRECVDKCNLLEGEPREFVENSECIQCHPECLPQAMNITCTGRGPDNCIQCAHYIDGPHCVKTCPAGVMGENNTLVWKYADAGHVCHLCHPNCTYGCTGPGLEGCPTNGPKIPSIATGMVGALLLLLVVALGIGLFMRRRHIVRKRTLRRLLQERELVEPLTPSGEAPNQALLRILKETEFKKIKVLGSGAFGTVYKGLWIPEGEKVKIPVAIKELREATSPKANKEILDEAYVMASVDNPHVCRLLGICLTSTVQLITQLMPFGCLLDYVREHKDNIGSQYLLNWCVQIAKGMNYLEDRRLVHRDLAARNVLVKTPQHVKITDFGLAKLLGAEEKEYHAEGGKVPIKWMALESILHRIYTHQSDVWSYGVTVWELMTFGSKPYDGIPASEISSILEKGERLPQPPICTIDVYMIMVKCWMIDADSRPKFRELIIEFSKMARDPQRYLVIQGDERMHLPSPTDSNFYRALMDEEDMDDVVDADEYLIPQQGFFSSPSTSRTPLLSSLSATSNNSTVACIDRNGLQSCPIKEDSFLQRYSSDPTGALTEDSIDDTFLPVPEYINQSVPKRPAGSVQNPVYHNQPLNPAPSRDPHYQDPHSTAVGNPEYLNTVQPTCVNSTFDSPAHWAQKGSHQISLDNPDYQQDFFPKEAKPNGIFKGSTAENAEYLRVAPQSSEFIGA
Readout name: IC50 (nM)

Sample smiles | Unit name | Measured result
Cc1ncnc(Nc2ccc(OCc3cccc(F)c3)c(Cl)c2)c1/C=C/c1ccc(CNCCS(C)(=O)=O)o1 | nM | 460

1: CCOc1cc(N)c(C(=O)Nc2ccc(OCc3cccc(F)c3)c(Cl)c2)cc1NC(=O)/C=C/CN(C)C
2: CCOc1cc(N)c(C(=O)Nc2ccc(OCc3ccccn3)c(Cl)c2)cc1NC(=O)c1ccc(CN2CCN(C)CC2)cc1
### Prompt Of 1 and 2 , which carries the smaller reported IC50 figure? Reply briefly: the label of your chosen item.
### Response 2
(2: 1000 nM, 1: 1500 nM)
